The measured values listed here are drawn from paper PMC6009966.

- Study target: hCA II (Homo sapiens)
- Experimental details: CO2 hydratase activity inhibition of hCA II (pH-stat method)
- Assay type: biochemical
- Condition parameters: CO2 hydratase activity, 0 °C, veronal buffer pH 8.15; mean ± standard error, three assays
Measured quantity: pIC50
One number for each entry, as −log10 of the molar value.

Compound	pIC50
NC(=S)Nc1ccc(S(N)(=O)=O)cc1 [TBS, 4-thioureidobenzenesulfonamide, reference compound]	5.36

Please go through the list and note pIC50 for each compound.
1. Nc1nc2ccc(S(N)(=O)=O)cc2s1
2. Nc1nc2ccc(S(N)(=O)=O)cc2s1.O=C(O)c1cccc(C(=O)O)n1 [Compound 1, (SMHABT)^+(HDPC)^−]

Result block:
5.41
5.70

---

Answer each item with its documented IC50.
- Study target: hCA I (Homo sapiens)
- Sequence (P00915 whole entry): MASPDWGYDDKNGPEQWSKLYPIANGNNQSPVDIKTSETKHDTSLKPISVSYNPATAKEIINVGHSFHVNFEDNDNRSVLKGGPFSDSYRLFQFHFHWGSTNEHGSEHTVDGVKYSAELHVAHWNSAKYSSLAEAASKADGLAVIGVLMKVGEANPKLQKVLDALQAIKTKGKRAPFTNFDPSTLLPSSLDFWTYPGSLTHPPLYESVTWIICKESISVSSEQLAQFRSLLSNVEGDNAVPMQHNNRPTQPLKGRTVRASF
- Experimental details: Esterase activity inhibition of hCA I (4-nitrophenylacetate, 348 nm)
- Assay type: biochemical
- Condition parameters: 4-nitrophenylacetate, 25 °C, TRIS-SO4 pH 7.4; mean ± standard error, three assays
One number for each entry, in nM.

Substance	Measured quantity	Number
(SMHABT)2[Co(DPC)2].5H2O [Compound 3]	IC50	66
(SMHABT)2[Ni(DPC)2].5H2O [Compound 4]	IC50	136

Kindly consider the entry below.
Query block: Would you mind telling me what IC50 value was observed for (SMHABT)[Fe(DPC)2].4H2O [Compound 2] ?
Result block: 409

---

- Study target: hCA II (Homo sapiens)
- Experimental details: Esterase activity inhibition of hCA II (4-nitrophenylacetate, 348 nm)
- Type: biochemical
- Condition parameters: 4-nitrophenylacetate, 25 °C, TRIS-SO4 pH 7.4; mean ± standard error, three assays
Measured quantity: IC50
The answer consists of two parts: a number and, after it, its unit.

Molecule	IC50
NC(=S)Nc1ccc(S(N)(=O)=O)cc1 [TBS, 4-thioureidobenzenesulfonamide, reference compound]	234 nM
Nc1nc2ccc(S(N)(=O)=O)cc2s1 [SMABT, 2-amino-6-sulfamoylbenzothiazole]	322 nM

From here, focus on the item given below.
Query block: Requested field: IC50. Item: Nc1nc2ccc(S(N)(=O)=O)cc2s1.O=C(O)c1cccc(C(=O)O)n1 [Compound 1, (SMHABT)^+(HDPC)^−]
Result block: 133 nM
